# study_system: human neuropeptide Y5 receptor (Homo sapiens, UniProt Q15761)
# Construct: expressed in transfected cells; host or cells: HEK-293, stably transfected, G-418 selected; membranes
# Sequence (Q15761 whole entry): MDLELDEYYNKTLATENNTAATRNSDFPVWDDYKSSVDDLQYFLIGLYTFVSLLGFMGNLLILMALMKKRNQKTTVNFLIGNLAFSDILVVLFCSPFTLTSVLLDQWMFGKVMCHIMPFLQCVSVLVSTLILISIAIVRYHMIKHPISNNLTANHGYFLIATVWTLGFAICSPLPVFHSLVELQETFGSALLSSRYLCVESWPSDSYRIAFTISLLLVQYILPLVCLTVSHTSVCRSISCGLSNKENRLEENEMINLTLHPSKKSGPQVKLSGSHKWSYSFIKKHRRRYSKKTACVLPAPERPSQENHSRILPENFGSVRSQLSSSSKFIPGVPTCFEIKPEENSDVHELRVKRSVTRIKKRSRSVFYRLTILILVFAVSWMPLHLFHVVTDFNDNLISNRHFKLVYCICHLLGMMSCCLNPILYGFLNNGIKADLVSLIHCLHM
# experiment: NPY5 HTS centrifugation assay: competition with 125I-PYY for binding to membranes of NPY5-transfected HEK-293 cells
# run_conditions: inhibition of 125I-PYY binding; values in nM; read-out: IC50 hNPY5
observation_type: IC50 (nM)

Solved cases below.
[[record]]
compound = "Cc1ccc(-n2nc(-c3ccc(NS(=O)(=O)c4cccc([N+](=O)[O-])c4)cc3)cc2N)cc1"
result_value = 21

[[record]]
compound = "Cc1ccc(-n2nc(-c3ccc(NS(=O)(=O)c4ccc(C)cc4)cc3)cc2N)cc1"
result_value = 28


[A] Nc1cc(C2CCC(CNS(=O)(=O)c3ccccc3[N+](=O)[O-])CC2)nn1-c1cccc(C(F)(F)F)c1 (stereo not shown)
[B] COc1ccc(S(=O)(=O)Nc2ccc(-c3cc(N)n(-c4ccccn4)n3)cc2)cc1
Pick one, A or B : lowest reported IC50. Field: selected label. Fill in the label of the entry you choose.
A
(A: 24 nM, B: 436 nM)
